- system-under-test: human APJ receptor (Homo sapiens (Human))
- assay-remarks: biochemical
- Format: biochemical
- measurement-parameters: [35S]GTPγS binding, membranes from CHO cells stably expressing human APJ receptor; read-out: Activity hAPJ SPA EC50 IP
quantity-name: pEC50
The quantity pEC50 is defined as the negative base-10 logarithm of the molar concentration.

The compound listed as COc1ncnc(OC)c1-n1c(Cc2ccccc2)nnc1NS(=O)(=O)[C@@H](C)[C@H](OC)c1ncc(Cl)cn1 [Example 22.0] shows pEC50 equal to 6.92

The compound listed as COc1cccc(OC)c1-n1c(CC2COC2)nnc1NS(=O)(=O)[C@@H](C)[C@H](C)c1ncc(Cl)cn1 [Example 34.0] shows pEC50 equal to 7.80

The compound listed as COCc1nnc(NS(=O)(=O)[C@@H](C)[C@H](OC)c2ncc(Cl)cn2)n1C1CCOCC1 [Example 63.0] shows pEC50 equal to 8.00

The compound listed as COc1ncnc(OC)c1-n1c(Cc2ccccc2)nnc1NS(=O)(=O)[C@@H](C)[C@H](C)c1ncc(C)cn1 [Example 23.0] shows pEC50 equal to 6.40

The compound listed as COc1cccc(OC)c1-n1c(NS(=O)(=O)[C@@H](C)[C@H](C)c2ncc(C)cn2)nnc1[C@@H](OC)c1ccccc1 [Example 19.0] shows pEC50 equal to 6.70

The compound listed as COc1cccc(OC)c1-n1c(Cc2cc[nH]n2)nnc1NS(=O)(=O)[C@@H](C)[C@H](C)c1ncc(Cl)cn1 [Example 39.0] shows pEC50 equal to 8.24

The compound listed as COc1ncnc(OC)c1-n1c(NS(=O)(=O)[C@@H](C)[C@H](C)c2ncc(Cl)cn2)nnc1[C@@H](C)OC(C)C (single isomer, unassigned) [Example 2.0] shows pEC50 equal to 6.77

* * *

- system-under-test: human APJ receptor (Homo sapiens (Human))
- assay-remarks: biochemical
- Format: biochemical
- measurement-parameters: [35S]GTPγS binding, membranes from CHO cells stably expressing human APJ receptor; read-out: Activity hAPJ SPA EC50 IP
quantity-name: pEC50
The quantity pEC50 is defined as the negative base-10 logarithm of the molar concentration.

1) COCc1nnc(NS(=O)(=O)[C@@H](C)[C@H](OC)c2ncc(Cl)cn2)n1C1(c2cccnc2)CC1; 7.54

The compound listed as COc1ncnc(OC)c1-n1c(COC(F)F)nnc1NS(=O)(=O)[C@@H](C)[C@H](OC)c1ncc(Cl)cn1 shows pEC50 equal to 7.22

The compound listed as COCc1nnc(NS(=O)(=O)[C@@H](C)[C@H](OC)c2ncc(Cl)cn2)n1C1(COC)CC1 shows pEC50 equal to 6.62

The compound listed as COCc1nnc(NS(=O)(=O)[C@@H](C)[C@H](OC)c2ncc(Cl)cn2)n1C1(C)CC1 shows pEC50 equal to 7.48

The compound listed as COCc1nnc(NS(=O)(=O)[C@@H](C)[C@H](C)c2ncc(OC)cn2)n1-c1c(OC)cccc1OC shows pEC50 equal to 7.92

The compound listed as COc1ncnc(OC)c1-n1c(COC(C)C)nnc1NS(=O)(=O)[C@@H](C)[C@H](OC)c1ncc(Cl)cn1 shows pEC50 equal to 8.54

The compound listed as COc1cccc(OC)c1-n1c(Cc2nc(C)cs2)nnc1NS(=O)(=O)[C@@H](C)[C@H](C)c1ncc(Cl)cn1 shows pEC50 equal to 7.44

* * *

- system-under-test: human APJ receptor (Homo sapiens (Human), UniProt P35414)
- Sequence (P35414 whole entry): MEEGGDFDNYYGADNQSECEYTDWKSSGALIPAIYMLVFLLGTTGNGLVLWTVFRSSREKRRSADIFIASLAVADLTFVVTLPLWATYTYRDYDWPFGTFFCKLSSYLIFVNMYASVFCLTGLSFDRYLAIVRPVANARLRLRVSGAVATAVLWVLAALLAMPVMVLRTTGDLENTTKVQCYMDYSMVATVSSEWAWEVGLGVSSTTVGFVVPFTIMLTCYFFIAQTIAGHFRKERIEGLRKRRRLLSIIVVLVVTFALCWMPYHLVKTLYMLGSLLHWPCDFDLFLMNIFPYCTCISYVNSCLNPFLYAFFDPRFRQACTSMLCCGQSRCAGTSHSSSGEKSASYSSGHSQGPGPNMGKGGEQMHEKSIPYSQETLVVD
- assay-remarks: biochemical
- Type: biochemical
- measurement-parameters: [35S]GTPγS binding, membranes from CHO cells stably expressing human APJ receptor; read-out: Activity hAPJ SPA EC50 IP
- Protocol: The human APJ receptor was cloned by polymerase chain reaction and the gene encoding the receptor was subcloned in pFLAG-CMV™-3 expression vector (Sigma, Saint Louis, Mo. USA) in-house at Amgen. A GTPγS binding assay was performed on membranes prepared from CHO cells stably expressing human APJ receptor. The optimum experimental conditions for the concentrations of GDP, MgCl2, and NaCl in the assay buffer were initially determined. […]
Reported log10 of EC50 is given for each of the following molecules.
Units before log transform: nM; reported quantity: EC50; transform: log10.

1) COc1cccc(OC)c1-n1c(Cc2ccncc2)nnc1NS(=O)(=O)[C@@H](C)[C@H](C)c1ncc(Cl)cn1 [Example 141.0]; 2.00
2) COc1cccc(OC)c1-n1c(CC(C)(C)OC)nnc1NS(=O)(=O)[C@@H](C)[C@H](C)c1ncc(Cl)cn1; 2.04
3) COc1ncnc(OC)c1-n1c(COC(C)C)nnc1NS(=O)(=O)[C@@H](C)[C@H](C)c1ncc(Cl)cn1; 0.38
4) COc1cccc(OC)c1-n1c(Cc2ccncc2)nnc1NS(=O)(=O)[C@@H](C)[C@H](C)c1ncc(Cl)cn1 [Example 45.0]; 0.23
5) COc1cccc(OC)c1-n1c(Cn2ccccc2=O)nnc1NS(=O)(=O)[C@@H](C)[C@H](C)c1ncc(Cl)cn1; 2.52
6) COc1cccc(OC)c1-n1c(NS(=O)(=O)[C@@H](C)[C@H](C)c2ncc(C)cn2)nnc1C(F)(F)c1ccccn1; 2.36
7) COc1cccc(OC)c1-n1c(C[C@@H]2CCS(=O)(=O)C2)nnc1NS(=O)(=O)[C@@H](C)[C@H](C)c1ncc(Cl)cn1 (mixture of isomers); 1.85
8) COc1cccc(OC)c1-n1c(Cc2ccccn2)nnc1NS(=O)(=O)[C@@H](C)[C@H](C)c1ncc(Cl)cn1; 1.51
9) COc1ncnc(OC)c1-n1c(CC2COC2)nnc1NS(=O)(=O)[C@@H](C)[C@H](C)c1ncc(Cl)cn1; 2.32
10) COc1ncnc(OC)c1-n1c(NS(=O)(=O)[C@@H](C)[C@H](O)c2ncc(C)cn2)nnc1C(C)(C)c1ccccc1; 2.93

The molecule listed as COc1ncnc(OC)c1-n1c(CC2CCCCC2)nnc1NS(=O)(=O)[C@@H](C)[C@H](OC)c1ncc(Cl)cn1 shows log10 of EC50 equal to 1.32

The molecule listed as COc1cccc(OC)c1-n1c(NS(=O)(=O)[C@@H](C)[C@H](C)c2ncc(Cl)cn2)nnc1[C@@H](O)c1ccccc1 shows log10 of EC50 equal to 2.04

* * *

Reported EC50 is given for each of the following molecules.
- system-under-test: human APJ receptor (Homo sapiens (Human))
- assay-remarks: biochemical
- Type: biochemical
- measurement-parameters: [35S]GTPγS binding, membranes from CHO cells stably expressing human APJ receptor; read-out: Activity hAPJ SPA EC50 IP
Your answer should be a plain number; it is taken to be in nM.

Consider the following illustrative entries.
1. CC[C@@H](OC)c1nnc(NS(=O)(=O)[C@@H](C)[C@H](C)c2ncc(Cl)cn2)n1-c1c(OC)ncnc1OC (single isomer, unassigned) [Example 7.0]; 360
2. COc1cccc(OC)c1-n1c(CS(C)(=O)=O)nnc1NS(=O)(=O)[C@@H](C)[C@H](C)c1ncc(Cl)cn1 [Example 37.0]; 340

So the reported EC50 for COCCn1c(COC)nnc1NS(=O)(=O)[C@@H](C)[C@H](OC)c1ncc(Cl)cn1 [Example 156.0] , on human APJ receptor (Homo sapiens (Human)), turned out to be 520

So the reported EC50 for COc1cccc(OC)c1-n1c(NS(=O)(=O)[C@@H](C)[C@H](C)c2ncc(Cl)cn2)nnc1C(F)(F)c1ccccn1 [Example 136.0] , on human APJ receptor (Homo sapiens (Human)), turned out to be 35

So the reported EC50 for COCc1nnc(NS(=O)(=O)[C@@H](C)[C@H](C)c2cnc(C)cn2)n1-c1c(OC)cccc1OC [Example 8.0] , on human APJ receptor (Homo sapiens (Human)), turned out to be 260

So the reported EC50 for COc1ncnc(OC)c1-n1c(COCC(F)(F)F)nnc1NS(=O)(=O)[C@@H](C)[C@H](OC)c1ncc(Cl)cn1 [Example 135.0] , on human APJ receptor (Homo sapiens (Human)), turned out to be 40

So the reported EC50 for COCc1nnc(NS(=O)(=O)[C@@H](C)[C@H](C)c2cnc(C)cn2)n1-c1c(OC)ncnc1OC [Example 9.0] , on human APJ receptor (Homo sapiens (Human)), turned out to be 630

* * *

Reported pEC50 is given for each of the following compounds.
- system-under-test: human APJ receptor (Homo sapiens (Human))
- assay-remarks: biochemical
- Type: biochemical
- measurement-parameters: [35S]GTPγS binding, membranes from CHO cells stably expressing human APJ receptor; read-out: Activity hAPJ SPA EC50 IP
The quantity pEC50 is defined as the negative base-10 logarithm of the molar concentration.

Consider the following illustrative entries.
1) COCc1nnc(NS(=O)(=O)[C@@H](C)[C@H](OC)c2ncc(Cl)cn2)n1-c1c(F)cccc1F; 7.70
2) COc1ccc(Cl)c(-n2c(COC(F)F)nnc2NS(=O)(=O)[C@@H](C)[C@H](OC)c2ncc(Cl)cn2)c1; 7.68
3) COc1cccc(OC)c1-n1c(COc2ccccc2)nnc1NS(=O)(=O)[C@@H](C)[C@H](OC)c1ncc(C)cn1; 6.36
4) COc1ncnc(OC)c1-n1c(CC(F)(F)F)nnc1NS(=O)(=O)[C@@H](C)[C@H](OC)c1ncc(Cl)cn1; 6.64

The compound listed as COc1ncnc(OC)c1-n1c(NS(=O)(=O)[C@@H](C)[C@H](C)c2ncc(Cl)cn2)nnc1[C@@H](C)OC (single isomer, unassigned) [Example 5.0] shows pEC50 equal to 6.51

The compound listed as COc1cccc(OC)c1-n1c(Cc2cccnc2)nnc1NS(=O)(=O)[C@@H](C)[C@H](C)c1ncc(C)cn1 shows pEC50 equal to 6.74

The compound listed as COc1ncnc(OC)c1-n1c(NS(=O)(=O)[C@@H](C)[C@H](C)c2ncc(Cl)cn2)nnc1[C@@H](C)OC(C)C (single isomer, unassigned) [Example 3.0] shows pEC50 equal to 6.49
